# assayed-system: Potassium voltage-gated channel subfamily KQT member 2 (Rattus norvegicus) (UniProt O88943)
# Sequence (O88943 whole entry, looked up): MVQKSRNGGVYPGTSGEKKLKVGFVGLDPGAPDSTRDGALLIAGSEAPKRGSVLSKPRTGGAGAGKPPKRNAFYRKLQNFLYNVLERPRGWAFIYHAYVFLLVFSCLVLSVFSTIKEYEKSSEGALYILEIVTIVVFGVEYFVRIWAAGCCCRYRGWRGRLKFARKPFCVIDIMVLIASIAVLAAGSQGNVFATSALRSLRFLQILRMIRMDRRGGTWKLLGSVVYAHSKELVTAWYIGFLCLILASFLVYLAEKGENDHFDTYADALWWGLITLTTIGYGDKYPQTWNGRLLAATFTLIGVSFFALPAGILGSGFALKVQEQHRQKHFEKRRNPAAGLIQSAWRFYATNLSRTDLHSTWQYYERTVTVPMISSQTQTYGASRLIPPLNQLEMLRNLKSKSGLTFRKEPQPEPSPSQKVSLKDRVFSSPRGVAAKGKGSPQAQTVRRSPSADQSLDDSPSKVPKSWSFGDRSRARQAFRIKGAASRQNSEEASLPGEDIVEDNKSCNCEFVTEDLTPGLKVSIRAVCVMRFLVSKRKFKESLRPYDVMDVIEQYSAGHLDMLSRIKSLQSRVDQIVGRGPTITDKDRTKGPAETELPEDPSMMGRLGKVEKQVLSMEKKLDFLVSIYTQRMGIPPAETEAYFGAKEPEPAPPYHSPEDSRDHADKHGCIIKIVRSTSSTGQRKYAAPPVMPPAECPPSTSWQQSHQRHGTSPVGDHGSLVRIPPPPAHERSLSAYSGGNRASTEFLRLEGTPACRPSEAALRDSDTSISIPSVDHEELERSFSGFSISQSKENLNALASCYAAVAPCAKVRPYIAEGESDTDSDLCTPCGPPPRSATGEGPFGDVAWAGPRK
# assay-explanation: KCNQ2 channel current inhibitors, SAR follow-up, orthogonal assay for KCNQ2 inhibitor project, automated electrophysiology, CHO cells, CRC2 (AID 588426)
# test-conditions: KCNQ2-CHO automated patch clamp current
metric: IC50

Request the reported IC50 associated with CCC(C(=O)Nc1ccccc1N1CCCC1)c1cccc(C)c1 (stereo not given) 330 nM

Request the reported IC50 associated with `O=C(Cc1ccccc1Cl)Nc1ccccc1N1CCCC1` 950 nM

Request the reported IC50 associated with `O=C(Cc1ccc(F)cc1)Nc1ccccc1N1CCCC1` 700 nM

Request the reported IC50 associated with CCC(C(=O)Nc1ccccc1N1CCCC1)c1ccc(OC)cc1 (stereo not given) 380 nM

Request the reported IC50 associated with `O=C(Nc1ccccc1N1CCCC1)[C@H]1CCc2ccccc21` 14100 nM
